src = paper PMC10056485

Experiment: Pharmacokinetics of cabozantinib in plasma of freely moving rats with or without liver radiotherapy
Details: Sprague-Dawley, rat, plasma, po, 6 mg/kg
assay.readout: concentration at 60 min
Don't forget the unit after the number, please.

Query: For COc1cc2nccc(Oc3ccc(NC(=O)C4(C(=O)Nc5ccc(F)cc5)CC4)cc3)c2cc1OC [cabozantinib] , write its concentration at 60 min.
Reply: 0.8 µg/mL

* * *

Assay: Pharmacokinetics of cabozantinib in plasma of freely moving rats with or without liver radiotherapy
Details: Sprague-Dawley, rat, plasma, po, 6 mg/kg, AUC0-T, rat plasma; 6 mg/kg p.o. q.d. 3 days; RT 9Gy x 3 f'x sequential
assay.readout: AUC(0-t) (ng·h/mL)
Write the answer as a number in ng·h/mL, unit excluded.

Query: For COc1cc2nccc(Oc3ccc(NC(=O)C4(C(=O)Nc5ccc(F)cc5)CC4)cc3)c2cc1OC [cabozantinib] , write its AUC(0-t).
Reply: 4180
